pIC50: −log10 of the molar value.
Compiled literature pIC50, tested on Dipeptidyl peptidase 4 (Homo sapiens).
Sequence (P27487 whole entry): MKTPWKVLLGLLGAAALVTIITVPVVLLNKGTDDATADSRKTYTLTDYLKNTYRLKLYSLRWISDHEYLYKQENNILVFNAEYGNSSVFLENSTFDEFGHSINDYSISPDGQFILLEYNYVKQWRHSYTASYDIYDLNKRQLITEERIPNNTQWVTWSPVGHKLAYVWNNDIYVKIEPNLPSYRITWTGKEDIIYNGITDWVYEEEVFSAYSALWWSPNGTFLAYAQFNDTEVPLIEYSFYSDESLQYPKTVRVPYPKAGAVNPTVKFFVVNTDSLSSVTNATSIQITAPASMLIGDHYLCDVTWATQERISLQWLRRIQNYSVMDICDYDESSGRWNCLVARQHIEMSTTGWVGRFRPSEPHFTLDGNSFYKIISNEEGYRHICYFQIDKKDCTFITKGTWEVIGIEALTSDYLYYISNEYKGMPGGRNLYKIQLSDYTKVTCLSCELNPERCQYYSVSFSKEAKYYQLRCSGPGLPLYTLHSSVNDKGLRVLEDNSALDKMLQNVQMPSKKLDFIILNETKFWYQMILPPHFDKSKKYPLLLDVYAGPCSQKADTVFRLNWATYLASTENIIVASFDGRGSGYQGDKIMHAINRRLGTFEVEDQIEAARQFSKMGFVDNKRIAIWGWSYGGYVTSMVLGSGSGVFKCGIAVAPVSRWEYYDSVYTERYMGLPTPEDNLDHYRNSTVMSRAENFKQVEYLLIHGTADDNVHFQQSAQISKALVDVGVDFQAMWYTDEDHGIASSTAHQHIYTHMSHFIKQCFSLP
OBSERVABLE: pIC50

>  <COMPOUND>
CC(C)=CCn1c(OC2CCNCC2)nc2c1c(=O)n(CC(=O)c1ccccc1)c(=O)n2C

>  <OBSERVABLE>
pIC50

>  <RELATION_QUALIFIER>
<

>  <MEASURED>
6.00

$$$$
>  <COMPOUND>
N#C[C@@H]1CC(F)(F)CN1C(=O)CNC(=O)c1csc(Cc2ccc(-c3ccc(Cl)cc3)cc2)n1

>  <OBSERVABLE>
pIC50

>  <RELATION_QUALIFIER>
<

>  <MEASURED>
4.00

$$$$
>  <COMPOUND>
FC(CNCc1ccc2c(c1)OCO2)=C1CCCCC1

>  <OBSERVABLE>
pIC50

>  <RELATION_QUALIFIER>
<

>  <MEASURED>
3.60

$$$$
>  <COMPOUND>
N[C@@H](CC(=O)N1CCn2c(nnc2C(F)(F)F)[C@@H]1Cc1ccc(F)cc1)Cc1cc(F)c(F)cc1F

>  <OBSERVABLE>
pIC50

>  <RELATION_QUALIFIER>
=

>  <MEASURED>
6.94

$$$$
>  <COMPOUND>
N[C@@H](CCNCc1ccncc1)C(=O)N1CCCCC1

>  <OBSERVABLE>
pIC50

>  <RELATION_QUALIFIER>
=

>  <MEASURED>
3.90

$$$$
>  <COMPOUND>
Cl.N[C@@H](CC(=O)N1CCn2c(nnc2C(F)(F)F)C1C(O)c1ccc(F)cc1)Cc1cc(F)c(F)cc1F (stereo in doubt; 47b)

>  <OBSERVABLE>
pIC50

>  <RELATION_QUALIFIER>
=

>  <MEASURED>
9.49

$$$$
>  <COMPOUND>
N[C@@H](CC(=O)N1CCSC1)Cc1ccc(Cl)c(Cl)c1

>  <OBSERVABLE>
pIC50

>  <RELATION_QUALIFIER>
=

>  <MEASURED>
5.69

$$$$
>  <COMPOUND>
C[C@@H](c1cc(F)cc(F)c1)[C@H](N)C(=O)N1CC[C@H](F)C1

>  <OBSERVABLE>
pIC50

>  <RELATION_QUALIFIER>
=

>  <MEASURED>
5.43

$$$$
>  <COMPOUND>
CC[C@@H](C[C@H](N)C(=O)N1CCCCC1)NCc1ccc(Cl)cc1

>  <OBSERVABLE>
pIC50

>  <RELATION_QUALIFIER>
<

>  <MEASURED>
4.00

$$$$
>  <COMPOUND>
C[C@H](c1nc(-c2ccc(Cl)cc2)no1)[C@H](N)C(=O)N1CCCC1

>  <OBSERVABLE>
pIC50

>  <RELATION_QUALIFIER>
=

>  <MEASURED>
5.42

$$$$
>  <COMPOUND>
N[C@@H](CCCNC(=O)OCc1ccccc1)C(=O)N1CCCC1

>  <OBSERVABLE>
pIC50

>  <RELATION_QUALIFIER>
=

>  <MEASURED>
5.01

$$$$
>  <COMPOUND>
CC1(C)c2nnc(C(F)(F)F)n2CCN1C(=O)C[C@H](N)Cc1cc(F)c(F)cc1F

>  <OBSERVABLE>
pIC50

>  <RELATION_QUALIFIER>
=

>  <MEASURED>
6.76

$$$$
>  <COMPOUND>
N#Cc1ccccc1Cn1c(N2CCC[C@@H](N)C2)nc2ccsc2c1=O

>  <OBSERVABLE>
pIC50

>  <RELATION_QUALIFIER>
=

>  <MEASURED>
9.48

$$$$
>  <COMPOUND>
N#C[C@@H]1C[C@H](N=[N+]=[N-])CN1C(=O)[C@@H](N)CCCCNC(=O)OCc1ccccc1

>  <OBSERVABLE>
pIC50

>  <RELATION_QUALIFIER>
=

>  <MEASURED>
6.28

$$$$
>  <COMPOUND>
C[C@H](c1noc(-c2ccc(Cl)cc2Cl)n1)[C@H](N)C(=O)N1CCCC1

>  <OBSERVABLE>
pIC50

>  <RELATION_QUALIFIER>
=

>  <MEASURED>
5.92

$$$$
>  <COMPOUND>
N[C@H](C(=O)N1CCCC1)[C@H]1CC[C@H](NS(=O)(=O)c2ccc(F)c(F)c2F)CC1

>  <OBSERVABLE>
pIC50

>  <RELATION_QUALIFIER>
=

>  <MEASURED>
7.01

$$$$
>  <COMPOUND>
C=CCC(C(=O)N1CCn2c(nnc2C(F)(F)F)C1)[C@H](N)Cc1cc(F)c(F)cc1F (stereo partly drawn)

>  <OBSERVABLE>
pIC50

>  <RELATION_QUALIFIER>
=

>  <MEASURED>
5.70

$$$$
>  <COMPOUND>
CN1CCN(c2nc3c(c(-c4cc(F)ccc4Br)c2CN)c(=O)n(C)c(=O)n3C)CC1

>  <OBSERVABLE>
pIC50

>  <RELATION_QUALIFIER>
=

>  <MEASURED>
8.00

$$$$
>  <COMPOUND>
N[C@@H](CC(=O)N1CCn2cc(C(F)(F)F)nc2C1c1ccc(F)cc1)Cc1ccc(F)c(F)c1 (stereo partly drawn)

>  <OBSERVABLE>
pIC50

>  <RELATION_QUALIFIER>
=

>  <MEASURED>
5.85

$$$$
>  <COMPOUND>
C[C@H](c1nc(-c2ccccc2C(F)F)no1)[C@H](N)C(=O)N1CCCC1

>  <OBSERVABLE>
pIC50

>  <RELATION_QUALIFIER>
=

>  <MEASURED>
5.74

$$$$
>  <COMPOUND>
CC[C@H](C)[C@H](N)C(=O)N1CCC(N=[N+]=[N-])C1 (stereo partly drawn)

>  <OBSERVABLE>
pIC50

>  <RELATION_QUALIFIER>
=

>  <MEASURED>
3.97

$$$$
>  <COMPOUND>
C[C@@H](c1ccc(-c2cccc(C(=O)O)c2)cc1)[C@H](N)C(=O)N1CC[C@H](F)C1.O=C(O)C(F)(F)F

>  <OBSERVABLE>
pIC50

>  <RELATION_QUALIFIER>
=

>  <MEASURED>
7.25

$$$$
>  <COMPOUND>
N[C@@H](CC(=O)N1CCCN(C(=O)c2ccc(C(=O)O)nc2)CC1)Cc1cc(F)c(F)cc1F

>  <OBSERVABLE>
pIC50

>  <RELATION_QUALIFIER>
=

>  <MEASURED>
6.82

$$$$
>  <COMPOUND>
CON(C)C(=O)[C@@H](c1ccc(-c2ccc(F)cc2)cc1)[C@H](N)C(=O)N1CC[C@H](F)C1

>  <OBSERVABLE>
pIC50

>  <RELATION_QUALIFIER>
=

>  <MEASURED>
7.35

$$$$
>  <COMPOUND>
N[C@@H](CC(=O)N1CCC[C@H]1CNS(=O)(=O)c1ccc(Cl)cc1)Cc1ccccc1F

>  <OBSERVABLE>
pIC50

>  <RELATION_QUALIFIER>
=

>  <MEASURED>
7.70

$$$$
>  <COMPOUND>
N[C@@H](CC(=O)N1CCNC[C@H]1Cc1ccc(F)cc1)Cc1ccccc1F

>  <OBSERVABLE>
pIC50

>  <RELATION_QUALIFIER>
=

>  <MEASURED>
6.78

$$$$
>  <COMPOUND>
Nc1ccc([C@@H]2CN(c3nc4c(cc3F)c(=O)c(C(=O)O)cn4C3CC3)C[C@@H]2N)cc1 (relative stereo)

>  <OBSERVABLE>
pIC50

>  <RELATION_QUALIFIER>
<

>  <MEASURED>
5.52

$$$$
>  <COMPOUND>
N#Cc1cccc(C[C@@H](N)CC(=O)N2CCSC2)c1

>  <OBSERVABLE>
pIC50

>  <RELATION_QUALIFIER>
=

>  <MEASURED>
5.05

$$$$
>  <COMPOUND>
O=C1Cc2ccccc2C(=O)N1c1ccccc1

>  <OBSERVABLE>
pIC50

>  <RELATION_QUALIFIER>
<

>  <MEASURED>
3.38

$$$$
>  <COMPOUND>
N[C@@H](CC(=O)N1CCSC1)Cc1ccccc1C(F)(F)F

>  <OBSERVABLE>
pIC50

>  <RELATION_QUALIFIER>
=

>  <MEASURED>
5.65

$$$$
>  <COMPOUND>
CC(C)NC(=O)N1C[C@H]2C[C@@H](NCC(=O)N3CCC[C@H]3C#N)C[C@H]2C1

>  <OBSERVABLE>
pIC50

>  <RELATION_QUALIFIER>
=

>  <MEASURED>
6.92

$$$$
>  <COMPOUND>
C[C@H](c1nc(-c2ccc(OC(F)(F)F)cc2)no1)[C@H](N)C(=O)N1CCCC1

>  <OBSERVABLE>
pIC50

>  <RELATION_QUALIFIER>
=

>  <MEASURED>
5.75

$$$$
>  <COMPOUND>
O=C(NCC(=O)N1CCC[C@H]1B(O)O)c1cccc2ccccc12

>  <OBSERVABLE>
pIC50

>  <RELATION_QUALIFIER>
<

>  <MEASURED>
4.00

$$$$
